Data provenance: ChEMBL document CHEMBL4376814

Target: CDK9/cyclin T1 (Homo sapiens)
Sequence (O60563 whole entry): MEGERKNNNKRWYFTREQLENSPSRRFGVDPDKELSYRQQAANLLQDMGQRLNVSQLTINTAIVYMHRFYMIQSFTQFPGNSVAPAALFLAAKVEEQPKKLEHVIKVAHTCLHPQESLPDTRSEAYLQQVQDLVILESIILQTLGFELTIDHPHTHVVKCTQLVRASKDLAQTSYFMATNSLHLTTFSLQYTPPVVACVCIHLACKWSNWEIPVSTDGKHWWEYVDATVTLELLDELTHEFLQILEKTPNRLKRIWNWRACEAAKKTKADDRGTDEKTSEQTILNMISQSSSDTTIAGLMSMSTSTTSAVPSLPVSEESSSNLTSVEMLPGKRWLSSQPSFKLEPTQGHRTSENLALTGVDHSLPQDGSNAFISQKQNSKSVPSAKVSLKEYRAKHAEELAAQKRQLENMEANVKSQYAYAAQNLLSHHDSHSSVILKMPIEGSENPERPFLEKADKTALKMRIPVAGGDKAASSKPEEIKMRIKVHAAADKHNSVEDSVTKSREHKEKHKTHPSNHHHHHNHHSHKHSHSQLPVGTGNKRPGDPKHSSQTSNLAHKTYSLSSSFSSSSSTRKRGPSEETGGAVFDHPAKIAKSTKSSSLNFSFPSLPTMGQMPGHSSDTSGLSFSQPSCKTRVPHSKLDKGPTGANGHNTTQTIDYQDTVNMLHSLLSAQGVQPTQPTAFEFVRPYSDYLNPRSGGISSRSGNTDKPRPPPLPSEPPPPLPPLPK
Sequence (P50750 whole entry): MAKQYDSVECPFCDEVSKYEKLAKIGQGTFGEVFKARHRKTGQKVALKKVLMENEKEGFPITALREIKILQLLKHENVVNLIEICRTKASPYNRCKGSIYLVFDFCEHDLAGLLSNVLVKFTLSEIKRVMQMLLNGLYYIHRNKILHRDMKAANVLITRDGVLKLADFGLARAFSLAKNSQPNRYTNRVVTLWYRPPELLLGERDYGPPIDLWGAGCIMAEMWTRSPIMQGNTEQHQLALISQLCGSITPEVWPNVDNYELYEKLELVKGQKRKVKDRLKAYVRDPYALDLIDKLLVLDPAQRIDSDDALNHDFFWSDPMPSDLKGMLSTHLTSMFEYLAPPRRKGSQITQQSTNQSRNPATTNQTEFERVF
Assay: Inhibition of recombinant full-length human CDK9/cyclinT1 using KTFCGTPEYLAPEVRREPRILSEEEQEMFRDFDYIADWC peptide as substrate measured after 40 mins in presence of [gamma33P]ATP by scintillation counting method
REPORTED METRIC: pIC50
Would you please state pIC50, meaning minus log10 of the concentration in mol/L, as a bare number?

{"SMILES RECORD": "CN(C)C(=O)c1cc2cnc(Nc3ccc(C(=O)NCCCCCN=C=S)cc3F)nc2n1C1CCCC1", "TESTED ON": "CDK9/cyclin T1 (Homo sapiens)", "pIC50": 7.96}

Per the record, CN(C)C(=O)c1cc2cnc(Nc3ccc(C(=O)NCCCCCN=C=S)cc3O)nc2n1C1CCCC1 has pIC50 of 7.48

The compound listed as CN(C)C(=O)c1cc2cnc(Nc3ccc(C(=O)NCCCCCCCN=C=S)cc3)nc2n1C1CCCC1 shows pIC50 equal to 7.92

// field: pIC50; key: CN(C)C(=O)c1cc2cnc(Nc3ccc(S(=O)(=O)NCCCCCCCN=C=S)cc3)nc2n1C1CCCC1 ; value = 8.05

Looking up CN(C)C(=O)c1cc2cnc(Nc3ccc(C(=O)NCCCN=C=S)cc3O)nc2n1C1CCCC1 , I found its pIC50 recorded as 7.17

# pIC50 (compound: CN(C)C(=O)c1cc2cnc(Nc3ccc(C(=O)NCCCCN=C=S)cc3F)nc2n1C1CCCC1 ) is 8.22

Query CN(C)C(=O)c1cc2cnc(Nc3ccc(C(=O)NCCCN=C=S)cc3F)nc2n1C1CCCC1 yields pIC50 of 8.00

Lab note: measured pIC50 of CN(C)C(=O)c1cc2cnc(Nc3ccc(C(=O)NCCCCCCCN=C=S)cc3F)nc2n1C1CCCC1 was 7.30

Lab note: measured pIC50 of CN(C)C(=O)c1cc2cnc(Nc3ccc(S(=O)(=O)NCCCCCCN=C=S)cc3)nc2n1C1CCCC1 was 8.05

###

Target: CDK4/Cyclin D3 (Homo sapiens, UniProt P11802)
Sequence (P11802 whole entry, the tested form may be a part): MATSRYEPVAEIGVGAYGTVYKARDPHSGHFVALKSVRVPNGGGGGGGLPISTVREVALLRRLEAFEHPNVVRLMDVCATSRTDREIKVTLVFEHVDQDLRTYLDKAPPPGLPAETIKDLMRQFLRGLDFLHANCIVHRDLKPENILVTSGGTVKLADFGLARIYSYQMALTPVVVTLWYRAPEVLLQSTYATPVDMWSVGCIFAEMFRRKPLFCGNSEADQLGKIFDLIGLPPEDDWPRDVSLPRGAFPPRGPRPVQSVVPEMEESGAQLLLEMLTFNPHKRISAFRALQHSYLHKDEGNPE
Sequence (P30281 whole entry, further chain, the tested form may be a part): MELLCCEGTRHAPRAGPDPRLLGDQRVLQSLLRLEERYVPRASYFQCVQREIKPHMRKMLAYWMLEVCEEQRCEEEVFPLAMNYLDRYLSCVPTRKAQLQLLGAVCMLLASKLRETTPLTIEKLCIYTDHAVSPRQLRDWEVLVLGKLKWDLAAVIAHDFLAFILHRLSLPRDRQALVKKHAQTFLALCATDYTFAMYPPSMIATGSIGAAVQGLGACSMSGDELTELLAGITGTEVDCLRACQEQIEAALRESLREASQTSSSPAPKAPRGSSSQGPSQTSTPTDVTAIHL
Test: Inhibition of recombinant full-length human CDK4/cyclinD3 using Rb fragment as substrate measured after 40 mins in presence of [gamma33P]ATP by scintillation counting method
REPORTED METRIC: IC50 (nM)
Kindly provide the numeric value in nM only, without the unit symbol.

Per the records, this compound ( CN(C)C(=O)c1cc2cnc(Nc3ccc(NC(=O)CCCCCCCN=C=S)cc3)nc2n1C1CCCC1 ) has IC50 equal to 148

###

Biological target: CDK4/Cyclin D3 (Homo sapiens) (UniProt P11802+P30281)
Experiment: Inhibition of recombinant full-length human CDK4/cyclinD3 at 1 uM using Rb fragment as substrate measured after 40 mins in presence of [gamma33P]ATP by scintillation counting method relative to control
Format: protein-complex assay
REPORTED METRIC: inhibition (%)
State just the number; it will be interpreted in %.

Below, 3 compounds whose answers are already recorded.
{"SMILES RECORD": "O=C(CCCCCCCN=C=S)Nc1ccc(Nc2ncc3nnn(C4CCCC4)c3n2)cc1", "TESTED ON": "CDK4/Cyclin D3 (Homo sapiens) (UniProt P11802+P30281)", "REPORTED METRIC": "inhibition", "UNIT OF MEASUREMENT": "%", "OBSERVED VALUE": 19}
{"SMILES RECORD": "CN(C)C(=O)c1cc2cnc(Nc3ccc(C(=O)NCCCN=C=S)cc3)nc2n1C1CCCC1", "TESTED ON": "CDK4/Cyclin D3 (Homo sapiens) (UniProt P11802+P30281)", "REPORTED METRIC": "inhibition", "UNIT OF MEASUREMENT": "%", "OBSERVED VALUE": 99}
{"SMILES RECORD": "CN(C)C(=O)c1cc2cnc(Nc3ccc(C(=O)NCCCCCCN=C=S)cn3)nc2n1C1CCCC1", "TESTED ON": "CDK4/Cyclin D3 (Homo sapiens) (UniProt P11802+P30281)", "REPORTED METRIC": "inhibition", "UNIT OF MEASUREMENT": "%", "OBSERVED VALUE": 95}

Reported inhibition (CDK4/Cyclin D3 (Homo sapiens) (UniProt P11802+P30281)) for entry CN(C)C(=O)c1cc2cnc(Nc3ccc(C(=O)NCCCCCN=C=S)cc3O)nc2n1C1CCCC1 is 59

Note to self: inhibition of CN(C)C(=O)c1cc2cnc(Nc3ccc(C(=O)NCCCCN=C=S)cc3F)nc2n1C1CCCC1 with CDK4/Cyclin D3 (Homo sapiens) (UniProt P11802+P30281) was 89

Here CN(C)C(=O)c1cc2cnc(Nc3ccc(S(=O)(=O)NCCCN=C=S)cc3)nc2n1C1CCCC1 was tested on CDK4/Cyclin D3 (Homo sapiens) (UniProt P11802+P30281), and its inhibition came to 90

Tested on CDK4/Cyclin D3 (Homo sapiens) (UniProt P11802+P30281): CN(C)C(=O)c1cc2cnc(Nc3ccc(NC(=O)CCCCCN=C=S)cc3)nc2n1C1CCCC1 . Observed inhibition: 96

With CDK4/Cyclin D3 (Homo sapiens) (UniProt P11802+P30281) as the test system, CN(C)C(=O)c1cc2cnc(Nc3ccc(N4CCNCC4)cn3)nc2n1C1CCCC1 showed inhibition of 101

Recorded inhibition for CN(C)C(=O)c1cc2cnc(Nc3ccc(NC(=O)CCCCCCCN=C=S)cc3F)nc2n1C1CCCC1 on CDK4/Cyclin D3 (Homo sapiens) (UniProt P11802+P30281) was 72
